Source: PubChem BioAssay (NCI)

# procedureDetails: NCI Yeast Anticancer Drug Screen. Data for the mec2-1 strain (AID 157)
# measurementContext: S. cerevisiae mec2-1 strain, at 50.0 µM, active compounds read high
About 79,000 compounds went through this panel and 15% of them were active in at least one assay; those are over-represented in the sample as a whole. Where a SMILES comes first, the peptide text is derived from it. The star is where a group is joined. Bz = O=C(c1ccccc1)*; Bn = c1ccc(C*)cc1; βAla = NCCC(=O)O
measurementName: growth inhibition (%)
Entry rule: numbers only, all in %.

// solved cases for growth inhibition follow
compound=CCN(CC)c1ccc2cc(C(=O)NC(=O)Oc3ccccc3)c(=O)oc2c1 resultunits=% number=-5.5
compound="CC(=O)OC(C)CCl (centres undefined)" resultunits=% number=-48.1
compound=CCCCONC(N)=O resultunits=% number=-11.1

Suppose we examine the compound COC(=O)C(CSCc1ccccc1)NC(=O)C(CSCc1ccccc1)NC(=O)CCNC(=O)c1ccccc1 (centres undefined) ({Bz-βAla}-Cys(Bn)-Cys(Bn)-OMe; configuration not given here) ; what growth inhibition value has been reported?
-5.05

Consider next the compound `C=COS(=O)O` in the same way.
-3.45

What about `C#CC1(O)c2ccccc2C(=O)c2ccccc21` ?
-7.85

Entry to check: `CN1CCN(Cc2cc(C(C)(C)C)cc(-c3ccccc3)c2O)CC1`
-25.1

Another compound to check: CC12NC(=O)NC1(C)NC(=O)N2 (centres undefined)
-6.3

Then what about the compound `CCO/C=C1\SC(=S)N(CCc2ccc(OC)c(OC)c2)C1=O` ?
-6.85
